- Test system: NCI-H23 lung
- METHOD: NCI-60 one-dose screen, 48 h
- CONDITION_PARAMETERS: 10 µM unless noted
This is part of a sample that, as a whole, favours compounds with a hit. Of some 83,000 tested, about 20% had one in any assay. The source made the active and inactive calls. Rule for the calls: active = growth percent below 10; inactive = the rest.
Give one outcome, nothing more. List: active, inactive

COc1ccc(/C=C2\c3cc(OC)c(OC)c(OC)c3CC[C@@H]2O)cc1F    inactive
COCCn1cc(-c2nc(-c3c[nH]c4ncccc34)cs2)c2ccccc21    inactive
O=C(Cn1nc(-c2cccc3ccccc23)ccc1=O)NCc1cccc(Cl)c1    inactive
Fc1cccc(CNc2c3ccccc3nc3ccccc23)c1    inactive
COC(=O)c1nc(-c2ccccc2)oc1S(=O)(=O)N1CCCC(C)C1 (stereo not drawn)    inactive

Qu. Kindly provide the recorded test outcome for the following molecule: COc1cc2ncnc(Nc3ccc(F)c(Cl)c3)c2cc1OCC(=O)N1CCOCC1
Ans. inactive

Qu. Kindly provide the recorded test outcome for the following molecule: COc1cc(C=Nc2oc(-c3ccccc3)c(-c3ccccc3)c2C#N)cc(CN2CCCC2)c1O
Ans. inactive

Qu. Kindly provide the recorded test outcome for the following molecule: CC(=O)Nc1sc2c(c1-c1nc3ccccc3s1)CNC2
Ans. inactive

Qu. Kindly provide the recorded test outcome for the following molecule: [N-]=[N+]=NCC1OC(n2cnc3c(NC(=O)Nc4ccccc4)ncnc32)C2OC(=O)CC12 (stereo not drawn)
Ans. inactive

Qu. Kindly provide the recorded test outcome for the following molecule: COc1ccc(-c2nc3ccc(C)cc3c3c2c(=O)n(C)c(=O)n3C)cc1OC
Ans. inactive

Qu. Kindly provide the recorded test outcome for the following molecule: CCOC(=O)/C=C1\S/C(=N\Nc2cc(=O)[nH]c3ccc(Br)cc23)N(c2ccccc2)C1=O
Ans. inactive

Qu. Kindly provide the recorded test outcome for the following molecule: O=C(/C=C/c1cn(-c2ccccc2)nc1-c1ccccc1)CCC(=O)NO
Ans. inactive

Qu. Kindly provide the recorded test outcome for the following molecule: COc1ccc(-c2cc(-c3cccnc3)nc3sc4c(N)c(C(C)=O)c(-c5ccccc5)nc4c23)cc1OC
Ans. inactive

Qu. Kindly provide the recorded test outcome for the following molecule: N=C(N)c1ccc(-c2ccc(-c3cc(Cl)cc(Cl)c3)s2)s1
Ans. active

Qu. Kindly provide the recorded test outcome for the following molecule: CCCCCCCCCCCCCCCCCCOc1ccccc1CC(=O)NCC[N+](C)(C)C
Ans. inactive

Qu. Kindly provide the recorded test outcome for the following molecule: CC(=O)N1N=C(c2ccc(Nc3nc(Nc4ccc(F)cc4)nc(Nc4ccc(F)cc4)n3)cc2)CC1c1ccc(N(C)C)cc1 (stereo not drawn)
Ans. inactive

Qu. Kindly provide the recorded test outcome for the following molecule: CN1CCN(Cc2ccc(NC(=O)c3cncc(C#Cc4cnc(N)cc4C#N)c3)cc2C(F)(F)F)CC1
Ans. inactive

Qu. Kindly provide the recorded test outcome for the following molecule: CNC(=O)c1cc(Oc2ccc3c(c2)sc2nc(-c4cc(C(F)(F)F)cc(C(F)(F)F)c4)cn23)ccn1
Ans. inactive
